Assay: Cell viability MTT assay on MCF-10A normal cells
Type: cell-based
Conditions: human, MCF-10A mammary gland epithelial normal cells, MCF-10A cells, four days of incubation
For each of the compounds below, state its viability at 4 days, 50 µM.
Please report the result as a number followed by the unit.

Query: Look up viability at 4 days, 50 µM for this compound: COc1ccc(-c2cc(-c3ccc(OC)c(OC)c3)n(CC(=O)Nc3ccc(C4=NNC(c5ccc(OC)c(OC)c5)C4)cc3)c(=O)c2C#N)cc1OC (stereo not shown)
Response: 90%

Query: What measured viability at 4 days, 50 µM goes with COc1ccc(-c2cc(-c3ccc(OC)c(OC)c3)n(CC(=O)Nc3ccc(C4=NNC(c5ccccc5)C4)cc3)c(=O)c2C#N)cc1OC (stereo not shown) ?
Response: 89%

Query: Returns the measured viability at 4 days, 50 µM for the input compound. Input: N#Cc1c(-c2ccc(Cl)cc2)cc(-c2ccc(Cl)cc2)n(CC(=O)Nc2ccc(C3=NNC(c4ccc(Cl)cc4)C3)cc2)c1=O (stereo not shown)
Response: 91%

Query: Quick one: viability at 4 days, 50 µM of COc1ccc(C2CC(c3ccc(NC(=O)Cn4c(-c5ccc(Cl)cc5)cc(-c5ccc(Cl)cc5)c(C#N)c4=O)cc3)=NN2)cc1 (stereo not shown) ?
Response: 88%
